Molecular target: T1, recombinant human RANTES (huRANTES, Peprotech) (human, UniProt P13501 24-91)
T1 sequence: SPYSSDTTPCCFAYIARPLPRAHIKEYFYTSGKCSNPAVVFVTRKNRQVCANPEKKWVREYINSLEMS
Experiment: cell-based or functional assay
Here the recorded Chemotaxis IC50 (nM), 1 nM huRANTES; L1.2-hCCR5 cells; IgG1 format is given for each entry.
Give a bare numeral; the unit nM is implied.

binder	result_units	measured_number
3E7 antibody, IgG1 format (antibody, V domains shown) VH: QVQLVQSGAEVKKPGASVKVSCKVSGYTLNDFAMHWVRQAPGKGLEWMGGYVPEDGDTIYAQKFQGRVTMTEDTSTDTAYMELSSLRSEDTAVYYCATDPLYPPGLSPWGQGTTVTVSS VL: SYVLTQPPSVSVAPGQTARITCGGNNIESKSVHWYQQKPGQAPVLVVYDDSDRPSGIPERFSGSNSGNTATLTISRVEAGDEADYYCQVWDSNTDHWVFGGGTKVTVL	nM	0.68
C8 antibody, IgG1 format (antibody, V domains shown) VH: QVQLVESGGGVVQPGRSLRLSCAASGFTFSSYAMHWVRQAPGKGLEWVAVISYDGSNKYYADSVKGRFTISRDNSKNTLYLQMNSLRAEDTAVYYCARETFPHYYYYYMDVWGRGTLVTVSS VL: SYVLTQPPSVSVAPGQTARITCEGDDTDIGTVNWYQQKPGQAPVLVISEDGYRPSGIPERFSGSNSGNTATLTISRVEAGDEADYYCQFWDVDSDHPVFGGGTQLTVLG	nM	2.1

With those in mind, consider the next binder.
Given the binder BG11 antibody, IgG1 format (antibody, V domains shown) VH: QVQLVQSGAEVKKPGASVKVSCKVSGYTLTELSMHWVRQAPGKGLEWMGGFDPEDGETIYAQKFQGRVTMTEDTSTDTAYMELSSLRSEDTAVYYCATYSGSSGWWAFDIWGQGTMVTVSS VL: SSELTQDPAVSVALGQTVRITCQGDSLRSYYASWYQQKPGQAPVLVIYGKNNRPSGIPDRFSGSSSGNTASLTITGAQAEDEADYYCQTWGTGIWVFGGGTKLTVL , what is its reported Chemotaxis IC50 (nM), 1 nM huRANTES; L1.2-hCCR5 cells; IgG1 format? 29
